// data source = patent US20240182445A1

# measuredOn: human TREK-1 (Homo sapiens, UniProt O95069)
# Construct: expressed in transfected cells
# Sequence (O95069 whole entry): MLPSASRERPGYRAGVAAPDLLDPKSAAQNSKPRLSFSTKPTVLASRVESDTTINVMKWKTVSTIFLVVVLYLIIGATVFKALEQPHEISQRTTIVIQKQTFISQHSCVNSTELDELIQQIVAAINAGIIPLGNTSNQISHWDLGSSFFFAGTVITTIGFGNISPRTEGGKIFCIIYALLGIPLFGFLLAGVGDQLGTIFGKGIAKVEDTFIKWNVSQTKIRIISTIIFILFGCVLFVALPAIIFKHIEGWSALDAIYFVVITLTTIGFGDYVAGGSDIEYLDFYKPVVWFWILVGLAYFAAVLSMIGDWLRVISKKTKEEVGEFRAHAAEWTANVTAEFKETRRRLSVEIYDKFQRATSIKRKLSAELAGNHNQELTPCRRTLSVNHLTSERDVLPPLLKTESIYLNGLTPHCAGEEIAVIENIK
# testMethodNotes: TREK-1 Thallium (Tl+) flux assay, Method 1
# Assay type: cell-based
# experimentalContext: TREK-1 Thallium (Tl+) flux assay, Method 1
# Protocol: The term “thallium flux assay” herein refers to a fluorescence-based assay used to monitor the activity of TREK channels. Thallium is a congener of potassium that readily fluxes through the pore of TREK channels. Thallium flux is measured using a commercially available, thallium-sensitive fluorescent dye called Thallos. The detail method is described below. […] ΔRatio=(fluorescence intensity at 25 seconds after thallium addition)/(average of fluorescent intensity before thallium addition)
# Lookup of reported IC50 keyed by entry
Express your answer in µM, writing the number without its unit.

>  <molecule>
Cc1cc(OCc2ccccc2)ccc1NC(=O)c1c(Cl)cnn1C1CCN(C(=O)C(C)(C)C)CC1 [Compound 405]

>  <assayEndpoint>
IC50

>  <recordedMeasurement>
2.31

$$$$
>  <molecule>
CC(=O)N1CCC(n2ncc(Cl)c2C(=O)Nc2ncc(-c3ccc(C(F)(F)F)cc3)cc2C)CC1 [Compound 427]

>  <assayEndpoint>
IC50

>  <recordedMeasurement>
5.21

$$$$
>  <molecule>
CC(=O)N1CCC(n2ncc(Cl)c2C(=O)Nc2ncc(-c3ccc(OC(F)F)cc3)cc2C)CC1 [Compound 421]

>  <assayEndpoint>
IC50

>  <recordedMeasurement>
4.4

$$$$

Cc1cc(OCc2ccccc2)ccc1NC(=O)c1c(Cl)cnn1[C@H]1CC[C@@H](NC(=O)OC(C)(C)C)CC1 [Compound 404] yielded IC50 of 2.3

CC(=O)N1CCC(n2ncc(Cl)c2C(=O)Nc2ncc(-c3cnc4ccccc4c3)cc2C)CC1 [Compound 422] yielded IC50 of 4.46

CC(=O)N1CCOC(Cn2ncc(Cl)c2C(=O)Nc2ccc(OCc3ccccc3)cc2C)C1 (stereo not shown) [Compound 423] yielded IC50 of 4.82

Cc1cc(OCc2ccccc2)ccc1NC(=O)c1c(Cl)cnn1CC1CN(C(=O)C2CCC2)CCO1 (stereo not shown) [Compound 424] yielded IC50 of 4.85
